Just for reference, the supplement of paper PMC11061612 is where these values come from.

System: MDA-MB-175-VII (Breast Carcinoma)
Test: combination Emax (second highest fraction inhibited in the dose matrix, 72 h); higher = more inhibition; extreme values may be limits of the assay
Measured combination Emax of individual entries

[
  {
    "COMPOUND": "COc1cccc(OCCCN)c1-c1cc(Nc2cnc(C#N)cn2)n[nH]1 [Prexasertib] + CCc1c2c(nc3ccc(O)cc13)-c1cc3c(c(=O)n1C2)COC(=O)[C@]3(O)CC [SN-38] (first compound max 1 µM, 7x7, partner max 0.3 µM)",
    "combination Emax": 0.547
  },
  {
    "COMPOUND": "Cn1cnc2c(F)c(Nc3ccc(Br)cc3Cl)c(C(=O)NOCCO)cc21 [Selumetinib] + CCN(CCO)CCCOc1ccc2c(Nc3cc(CC(=O)Nc4cccc(F)c4)[nH]n3)ncnc2c1 [AZD2811] (first compound max 10 µM, 7x7, partner max 1 µM)",
    "combination Emax": 0.485
  },
  {
    "COMPOUND": "Cc1c2c(nn1C)CSCc1cc(n(C)n1)CSc1cc(c3ccccc3c1)OCCCc1c(C(=O)O)n(C)c3c-2c(Cl)ccc13 [AZD5991] + C[C@@H]1COCCN1C2=NC(=NC(=C2)C3(CC3)[S@](=N)(=O)C)C4=C5C=CNC5=NC=C4 [AZD6738] (first compound max 1 µM, 7x7, partner max 10 µM)",
    "combination Emax": 0.259
  },
  {
    "COMPOUND": "C[C@@H]1COCCN1c1cc(C2([S@](C)(=N)=O)CC2)nc(-c2ccnc3[nH]ccc23)n1 [AZD6738] + Nc1ccn([C@@H]2O[C@H](CO)[C@@H](O)C2(F)F)c(=O)n1 [Gemcitabine] (first compound max 10 µM, 7x7, partner max 0.3 µM)",
    "combination Emax": 0.529
  }
]

----------
System: NCI-H2023 (Non-Small Cell Lung Carcinoma)
Assay: combination Emax (second highest fraction inhibited in the dose matrix, 72 h); higher = more inhibition; extreme values may be limits of the assay
EXPERIMENTAL_READOUT: combination Emax

[
  {
    "MOLECULE": "Cc1cc2ncnn2cc1Nc1ncc2c(n1)n(C1CCOCC1)c(=O)n2C [AZD7648] + C=CCn1c(=O)c2cnc(Nc3ccc(N4CCN(C)CC4)cc3)nc2n1-c1cccc(C(C)(C)O)n1 [AZD1775] (first compound max 10 µM, partner max 1 µM)",
    "NUMBER": 0.703
  },
  {
    "MOLECULE": "NC1(C(=O)N[C@@H](CCO)c2ccc(Cl)cc2)CCN(c2ncnc3[nH]ccc23)CC1 [Capivasertib] + C[C@@H]1COCCN1C2=NC(=NC(=C2)C3(CC3)[S@](=N)(=O)C)C4=C5C=CNC5=NC=C4 [AZD6738] (first compound max 10 µM, 7x7, partner max 10 µM)",
    "NUMBER": 0.655
  }
]

----------
Tested on: A375 (Melanoma)
Assay: Bliss excess, mean over the matrix (fraction); higher = more synergy
Measured Bliss excess of individual entries
EXPERIMENTAL_READOUT: Bliss excess

[
  {
    "MOLECULE": "C[C@@H](Nc1cc(F)cc(F)c1)c1cc(C(=O)N(C)C)cc2c(=O)cc(N3CCOCC3)oc12 [AZD8186] + C1CN(CCC1(C(=O)N[C@@H](CCO)C2=CC=C(C=C2)Cl)N)C3=NC=NC4=C3C=CN4 [AZD5363] (first compound max 10 µM, 7x7, partner max 10 µM)",
    "RESULT": 0.011
  },
  {
    "MOLECULE": "Cn1cnc2c(F)c(Nc3ccc(Br)cc3Cl)c(C(=O)NOCCO)cc21 [Selumetinib] + CC(C)n1c(=O)n(C)c2cnc3cc(F)c(-c4ccc(OCCCN5CCCCC5)nc4)cc3c21 [AZD1390] (first compound max 10 µM, 7x7, partner max 0.3 µM)",
    "RESULT": -0.0271
  },
  {
    "MOLECULE": "CC(=O)c1c(C)c2cnc(Nc3ccc(N4CCNCC4)cn3)nc2n(C2CCCC2)c1=O [Palbociclib] + Cc1c2c(nn1C)CSCc1cc(n(C)n1)CSc1cc(c3ccccc3c1)OCCCc1c(C(=O)O)n(C)c3c-2c(Cl)ccc13 [AZD5991] (first compound max 10 µM, 7x7, partner max 1 µM)",
    "RESULT": -0.0057
  },
  {
    "MOLECULE": "C=CCn1c(=O)c2cnc(Nc3ccc(N4CCN(C)CC4)cc3)nc2n1-c1cccc(C(C)(C)O)n1 [AZD1775] + C[C@@H]1COCCN1C2=NC(=NC(=C2)C3(CC3)[S@](=N)(=O)C)C4=C5C=CNC5=NC=C4 [AZD6738] (first compound max 1 µM, partner max 10 µM)",
    "RESULT": 0.0154
  }
]

----------
System: SK-N-DZ (Neuroblastoma)
Assay: Bliss excess, mean over the matrix (fraction); higher = more synergy
Measured Bliss excess of individual entries
EXPERIMENTAL_READOUT: Bliss excess

[
  {
    "MOLECULE": "C=CCn1c(=O)c2cnc(Nc3ccc(N4CCN(C)CC4)cc3)nc2n1-c1cccc(C(C)(C)O)n1 [AZD1775] + C1CN(CCC1(C(=O)N[C@@H](CCO)C2=CC=C(C=C2)Cl)N)C3=NC=NC4=C3C=CN4 [Capivasertib] (first compound max 3 µM, partner max 3 µM)",
    "EXPERIMENTAL_READOUT": "Bliss excess",
    "RESULT": -0.0116
  },
  {
    "MOLECULE": "CN(CCO)CC[C@H](CSc1ccccc1)Nc1ccc(S(=O)(=O)NC(=O)c2ccc(N3CCC([C@@H](O)c4ccccc4-c4ccc(Cl)cc4)CC3)cc2)cc1S(=O)(=O)C(F)(F)F [AZD4320] + C=CCn1c(=O)c2cnc(Nc3ccc(N4CCN(C)CC4)cc3)nc2n1-c1cccc(C(C)(C)O)n1 [AZD1775] (first compound max 1 µM, partner max 1 µM)",
    "EXPERIMENTAL_READOUT": "Bliss excess",
    "RESULT": 0.0351
  },
  {
    "MOLECULE": "COc1nnc2ccc(N3CCC(c4ccc(OCCN5CCN(C)C(=O)[C@H]5C)cc4)CC3)nn12 [AZD5153] + CCN(CCO)CCCOc1ccc2c(Nc3cc(CC(=O)Nc4cccc(F)c4)[nH]n3)ncnc2c1 [AZD2811] (first compound max 1 µM, 7x7, partner max 1 µM)",
    "EXPERIMENTAL_READOUT": "Bliss excess",
    "RESULT": -0.0722
  }
]

----------
Test system: SK-MEL-24 (Melanoma)
Assay: Bliss excess, mean over the matrix (fraction); higher = more synergy
Measured Bliss excess of individual entries
EXPERIMENTAL_READOUT: Bliss excess

[
  {
    "MOLECULE": "COc1cccc(OCCCN)c1-c1cc(Nc2cnc(C#N)cn2)n[nH]1 [Prexasertib] + CN(C)CCCOc1ccc(-c2ccc3ncc4c(c3c2)n(C2CCOCC2)c(=O)n4C)cn1 [AZD0156] (first compound max 1 µM, 7x7, partner max 1 µM)",
    "EXPERIMENTAL_READOUT": "Bliss excess",
    "RESULT": 0.0017
  },
  {
    "MOLECULE": "COc1cccc(OCCCN)c1-c1cc(Nc2cnc(C#N)cn2)n[nH]1 [Prexasertib] + C=CCn1c(=O)c2cnc(Nc3ccc(N4CCN(C)CC4)cc3)nc2n1-c1cccc(C(C)(C)O)n1 [AZD1775] (first compound max 1 µM, partner max 1 µM)",
    "EXPERIMENTAL_READOUT": "Bliss excess",
    "RESULT": 0.112
  },
  {
    "MOLECULE": "CN(CCO)CC[C@H](CSc1ccccc1)Nc1ccc(S(=O)(=O)NC(=O)c2ccc(N3CCC([C@@H](O)c4ccccc4-c4ccc(Cl)cc4)CC3)cc2)cc1S(=O)(=O)C(F)(F)F [AZD4320] + Nc1ccn([C@@H]2O[C@H](CO)[C@@H](O)C2(F)F)c(=O)n1 [Gemcitabine] (first compound max 1 µM, 7x7, partner max 0.3 µM)",
    "EXPERIMENTAL_READOUT": "Bliss excess",
    "RESULT": -0.0082
  }
]

----------
Tested on: C2BBe1 (Colorectal Carcinoma)
Test: Bliss excess, mean over the matrix (fraction); higher = more synergy
Label true for high-side Bliss excess (at or above 0.0009) and false for low-side Bliss excess (below it).

[
  {
    "MOLECULE": "CN(CCO)CC[C@H](CSc1ccccc1)Nc1ccc(S(=O)(=O)NC(=O)c2ccc(N3CCC([C@@H](O)c4ccccc4-c4ccc(Cl)cc4)CC3)cc2)cc1S(=O)(=O)C(F)(F)F [AZD4320] + C1CN(CCC1(C(=O)N[C@@H](CCO)C2=CC=C(C=C2)Cl)N)C3=NC=NC4=C3C=CN4 [Capivasertib] (first compound max 1 µM, 7x7, partner max 3 µM)",
    "CATEGORY_LABEL": "false"
  },
  {
    "MOLECULE": "COc1cccc(OCCCN)c1-c1cc(Nc2cnc(C#N)cn2)n[nH]1 [Prexasertib] + C=CCn1c(=O)c2cnc(Nc3ccc(N4CCN(C)CC4)cc3)nc2n1-c1cccc(C(C)(C)O)n1 [AZD1775] (first compound max 1 µM, partner max 1 µM)",
    "CATEGORY_LABEL": "true"
  },
  {
    "MOLECULE": "CN(C)CCCOc1ccc(-c2ccc3ncc4c(c3c2)n(C2CCOCC2)c(=O)n4C)cn1 [AZD0156] + C[C@@H]1COCCN1C2=NC(=NC(=C2)C3(CC3)[S@](=N)(=O)C)C4=C5C=CNC5=NC=C4 [AZD6738] (first compound max 1 µM, 7x7, partner max 10 µM)",
    "CATEGORY_LABEL": "false"
  },
  {
    "MOLECULE": "CC1(C)CCC(CN2CCN(c3ccc(C(=O)NS(=O)(=O)c4ccc(NCC5CCOCC5)c([N+](=O)[O-])c4)c(Oc4cnc5[nH]ccc5c4)c3)CC2)=C(c2ccc(Cl)cc2)C1 [Venetoclax] + C[C@@H]1COCCN1C2=NC(=NC(=C2)C3(CC3)[S@](=N)(=O)C)C4=C5C=CNC5=NC=C4 [AZD6738] (first compound max 1 µM, 7x7, partner max 10 µM)",
    "CATEGORY_LABEL": "false"
  },
  {
    "MOLECULE": "Cc1c2c(nn1C)CSCc1cc(n(C)n1)CSc1cc(c3ccccc3c1)OCCCc1c(C(=O)O)n(C)c3c-2c(Cl)ccc13 [AZD5991] + CC1(C)CCC(CN2CCN(c3ccc(C(=O)NS(=O)(=O)c4ccc(NCC5CCOCC5)c([N+](=O)[O-])c4)c(Oc4cnc5[nH]ccc5c4)c3)CC2)=C(c2ccc(Cl)cc2)C1 [Venetoclax] (first compound max 1 µM, 7x7, partner max 1 µM)",
    "CATEGORY_LABEL": "true"
  }
]
